biological target: 5-HT1F receptor (Homo sapiens, UniProt P30939); experiment: [3H]5-HT displacement binding to clonal 5-HT1F cell membranes (transfected Ltk- cells); set-up: The entire coding region of clone hl16a was cloned into the eukaryotic expression vector pcEXV-3; expressed in transfected cells; conditions: displacement of [3H]5-HT specific binding
endpoint: affinity for 5-HT1F receptor in words

COC(=O)[C@H]1[C@H]2C[C@H]3c4[nH]c5ccccc5c4CCN3C[C@H]2CC[C@@H]1O :: fair affinity
COC(=O)[C@@H]1[C@H]2C[C@H]3c4[nH]c5ccccc5c4CCN3C[C@@H]2CC[C@@H]1O :: fair affinity

----------
Target: 5-HT1F receptor (Homo sapiens)
Sequence (P30939 1-366): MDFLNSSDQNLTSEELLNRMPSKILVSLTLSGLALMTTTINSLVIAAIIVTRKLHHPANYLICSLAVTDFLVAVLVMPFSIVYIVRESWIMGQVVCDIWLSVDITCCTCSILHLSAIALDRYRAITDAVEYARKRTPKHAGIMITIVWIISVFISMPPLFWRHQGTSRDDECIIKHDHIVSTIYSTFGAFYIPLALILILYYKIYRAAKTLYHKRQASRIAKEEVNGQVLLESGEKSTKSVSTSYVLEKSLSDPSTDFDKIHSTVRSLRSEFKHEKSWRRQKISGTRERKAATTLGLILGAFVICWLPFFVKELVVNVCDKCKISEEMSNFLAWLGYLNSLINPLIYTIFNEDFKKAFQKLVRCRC
Test: [3H]5-HT displacement binding to clonal 5-HT1F cell membranes (transfected Ltk- cells)
Parameters: The entire coding region of clone hl16a was cloned into the eukaryotic expression vector pcEXV-3; expressed in transfected cells
Conditions: read-out: Ki (nM) for the inhibition of [3H]5-HT specific binding; 4.5-5.5 nM [3H]5-HT; 10-12 drug concentrations; Cheng-Prusoff from IC50; mean ± S.E.M. of 2-4 determinations
endpoint: log10 of Ki (log10 of the value in nM)
Heads up, the numbers here are log10 of Ki in nM units.

Below: 5 molecules and their reported log10 of Ki.
CN1C[C@H](CNC(=O)OCc2ccccc2)C[C@@H]2c3cccc4c3c(cn4C)C[C@H]21 :: 2.53
CN1C[C@H](C(=O)N[C@]2(C)O[C@@]3(O)[C@@H]4CCCN4C(=O)[C@H](Cc4ccccc4)N3C2=O)C=C2c3cccc4[nH]cc(c34)C[C@H]21 :: 2.23
COc1ccccc1N1CCN(CCCCN2C(=O)c3ccccc3C2=O)CC1 :: 2.31
FC(F)(F)c1cccc(N2CCNCC2)c1 :: 3.00
CSc1ccc2c(c1)C(N1CCN(C)CC1)Cc1ccccc1S2 (stereo not shown) [Methiothepin] :: 2.81

Challenge: Report log10 of Ki for CC[C@@H](CO)NC(=O)[C@@H]1C=C2c3cccc4[nH]cc(c34)C[C@H]2N(C)C1 please.
Response given: 1.49

Challenge: Then this molecule: Cc1[nH]c2ccc(O)cc2c1CCN
Response given: 2.62

----------
target: UniProt:P30939; test: [3H]5-HT displacement binding to clonal 5-HT1F cell membranes (transfected Ltk- cells); parameters: The entire coding region of clone hl16a was cloned into the eukaryotic expression vector pcEXV-3; expressed in transfected cells; conditions: read-out: Ki (nM) for the inhibition of [3H]5-HT specific binding
Quick reference: Ki of the listed items.
Write the value in nM as a bare number.

Below: 6 compounds and their reported Ki.
NCCc1c[nH]c2ccccc12 [Tryptamine] :: 2410
CCCN(CCC)C1CCc2cccc(O)c2C1 (stereo not drawn) [8-OH-DPAT] :: 1770
NCCc1c[nH]c2ccc(C(N)=O)cc12 [5-CT, 5-carboxyamidotryptamine] :: 717
Clc1cccc(N2CCNCC2)c1 [mCPP] :: 2020
c1ccc2nc(N3CCNCC3)ccc2c1 [Quipanzine] :: 4670
CC[C@@H](CO)NC(=O)[C@@H]1C=C2c3cccc4c3c(cn4C)C[C@H]2N(C)C1 [Methysergide] :: 34

Challenge: Report Ki for CCCN(CCC)CCc1c[nH]c2ccc(C(N)=O)cc12 [DP-5-CT] please.
Response given: 1610

Challenge: Then this compound: COC(=O)[C@@H]1[C@H]2C[C@H]3c4[nH]c5ccccc5c4CCN3C[C@@H]2CC[C@@H]1O [Yohimbine]
Response given: 92

Challenge: Then this compound: COc1cc(CC(C)N)c(OC)cc1I (stereo not drawn) [DOI]
Response given: 1740

----------
Molecular target: 5-HT1F receptor (Homo sapiens)
Sequence (P30939 1-366): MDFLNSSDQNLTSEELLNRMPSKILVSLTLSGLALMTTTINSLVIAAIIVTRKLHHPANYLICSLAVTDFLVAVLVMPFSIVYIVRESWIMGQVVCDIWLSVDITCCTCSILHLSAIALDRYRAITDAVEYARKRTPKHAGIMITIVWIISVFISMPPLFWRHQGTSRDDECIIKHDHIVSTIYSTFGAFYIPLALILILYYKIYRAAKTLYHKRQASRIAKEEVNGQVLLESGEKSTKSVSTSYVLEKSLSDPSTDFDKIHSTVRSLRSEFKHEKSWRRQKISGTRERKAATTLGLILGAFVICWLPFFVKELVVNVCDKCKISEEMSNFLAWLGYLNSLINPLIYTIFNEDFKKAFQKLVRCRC
Assay: [3H]5-HT displacement binding to clonal 5-HT1F cell membranes (transfected Ltk- cells)
Parameters: The entire coding region of clone hl16a was cloned into the eukaryotic expression vector pcEXV-3; expressed in transfected cells
Conditions: unit inferred; read-out: K1
endpoint: Ki (nM)
Write the value in nM as a bare number.

Challenge: 5-HT1F receptor (Homo sapiens) / Ki / c1ccc2c(N3CCNCC3)cccc2c1 [1-Napthylpiperazine] : value?
Response given: 54

----------
Molecular target: 5-HT1F receptor (Homo sapiens)
Sequence (P30939 1-366): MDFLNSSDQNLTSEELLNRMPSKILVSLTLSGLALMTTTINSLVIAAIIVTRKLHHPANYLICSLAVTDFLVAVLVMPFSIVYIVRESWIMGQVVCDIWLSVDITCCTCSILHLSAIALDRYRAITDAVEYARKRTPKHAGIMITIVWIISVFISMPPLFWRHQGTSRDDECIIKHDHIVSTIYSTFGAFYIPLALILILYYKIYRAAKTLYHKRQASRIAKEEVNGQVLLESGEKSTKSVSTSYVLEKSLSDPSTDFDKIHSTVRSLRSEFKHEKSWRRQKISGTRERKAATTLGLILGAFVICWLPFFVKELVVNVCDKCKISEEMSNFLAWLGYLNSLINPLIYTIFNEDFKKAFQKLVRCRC
Assay: [3H]5-HT displacement binding to clonal 5-HT1F cell membranes (transfected Ltk- cells)
Parameters: The entire coding region of clone hl16a was cloned into the eukaryotic expression vector pcEXV-3; expressed in transfected cells
endpoint: Ki

COc1ccc2[nH]cc(CCN(C)C)c2c1 [5-Methoxy-N,N-DMT, 5-methoxy-N,N-dimethyltryptamine] :: 37.5 nM
CN1C[C@@H](NS(=O)(=O)N(C)C)C[C@@H]2c3cccc4c3c(cn4C)C[C@H]21 [Mesulergine] :: > 10000 nM
COc1cc(N)c(Cl)cc1C(=O)NC1CN2CCC1CC2 (centres unmarked) [Zacopride] :: > 10000 nM
COc1ccc2c3c([nH]c2c1)C(C)=NCC3 [Harmaline] :: > 10000 nM

Challenge: 5-HT1F receptor (Homo sapiens) / Ki / C[C@@H](CO)NC(=O)[C@@H]1C=C2c3cccc4[nH]cc(c34)C[C@H]2N(C)C1 [Ergonovine] : value?
Response given: 31 nM

----------
Target: UniProt P30939
Sequence (P30939 1-366): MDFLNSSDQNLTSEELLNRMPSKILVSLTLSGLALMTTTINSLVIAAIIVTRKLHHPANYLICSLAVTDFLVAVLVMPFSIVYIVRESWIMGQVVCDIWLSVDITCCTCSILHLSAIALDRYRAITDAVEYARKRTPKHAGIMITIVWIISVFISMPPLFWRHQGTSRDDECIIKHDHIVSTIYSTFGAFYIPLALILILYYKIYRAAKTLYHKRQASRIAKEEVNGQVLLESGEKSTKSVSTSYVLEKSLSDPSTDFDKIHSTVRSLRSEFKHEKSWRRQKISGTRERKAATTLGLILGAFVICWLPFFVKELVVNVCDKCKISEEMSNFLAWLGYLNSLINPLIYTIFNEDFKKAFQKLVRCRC
endpoint: Kd (nM)
Write the value in nM as a bare number.

Challenge: Report Kd for CSc1ccc2c(c1)C(N1CCN(C)CC1)Cc1ccccc1S2 (stereo not shown) [Methiothepin] please.
Response given: 438
